The values you see were collected from patent US6972287B1.

- target: Aβ (1-40) peptide (Homo sapiens, UniProt P05067)
- Construct: 10 μL 0.5 mg/mL Aβ (1-40) peptide in 20% HFIP
- Sequence (P05067 672-711 limits assumed): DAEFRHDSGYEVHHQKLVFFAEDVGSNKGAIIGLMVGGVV
- test name: BAPA (Beta-Amyloid Peptide Aggregation, pH 6.0, filtration)
- Type: biochemical
- recorded conditions: Aβ (1-40) 33 μM, pH 6.0, 2 to 4 hours at room temperature; replicate values; letter = synthetic lot
# note: boundary value 50 µM maps to false (0); IC50 below it maps to true (1)

The following compounds have reported results that may help.
compound	category label
O=C(O)c1ccccc1Nc1ccc(CCc2ccc(Cl)c(Cl)c2)cc1 [Example 119]	false (0)
O=C(O)c1ccccc1Nc1ccc(CCc2ccccc2)cc1	false (0)
CCCCN(CCCC)c1ccc(CCCc2ccc(Nc3ccccc3C(=O)O)cc2)cc1	false (0)
CCNc1ccc(CCCc2ccc(Nc3ccccc3C(=O)O)cc2)cc1	true (1)
O=C(O)c1ccccc1Nc1ccc(CCc2ccc(-c3ccccc3)cc2)cc1	false (0)

Hi there! Is IC50 for `CCCCN(CCCC)c1ccc(CCc2ccc(Nc3ccccc3C(=O)O)cc2)cc1` below 50 µM, do you know?
false (0)

Hi there! Is IC50 for `COc1ccc(CCc2ccc(Nc3ccccc3C(=O)O)cc2)c(OC)c1` below 50 µM, do you know?
false (0)

Hi there! Is IC50 for `O=C(O)c1cccnc1Nc1ccc(CCc2ccc(Cl)c(Cl)c2)cc1` below 50 µM, do you know?
false (0)

Hi there! Is IC50 for `O=C(O)c1ccccc1Nc1ccc(CCCc2ccc([N+](=O)[O-])cc2)cc1` below 50 µM, do you know?
true (1)
